Values from patent US5801174A

# subject of test: AMPA receptor
# assay name: AMPA receptor binding affinity (in vitro)
# experimental conditions: Table 1
measured parameter: pIC50
The meaning of pIC50 here: minus log10 of the concentration in molar units.

Illustrative cases are given below, each with its answer.
Query: Fill in pIC50 for record CN1CCc2c(-c3ccc(S(=O)(=O)N(Cc4ccccc4)Cc4ccccc4)cc3)cc3c(c2C1)NC(=O)C3=NO
Response: 6.27

Query: Answer with the recorded pIC50 for the compound listed here: CN1CCc2c(-c3ccc(S(=O)(=O)NCCO)cc3)cc3c(c2C1)NC(=O)C3=NO
Response: 7.40

Query: Consider the compound CN1CCc2c(-c3ccc(S(=O)(=O)N4CCN(c5ccc(Cl)cc5)CC4)cc3)cc3c(c2C1)NC(=O)C3=NO and give its recorded pIC50.
Response: 7.17

Query: Give reported pIC50 value for CN1CCc2c(-c3ccc(S(=O)(=O)N4CCOCC4)cc3)cc3c(c2C1)NC(=O)C3=O
Response: 6.09

Query: # return recorded pIC50 for input CCN1Cc2c(-c3ccc(S(=O)(=O)N(C)C)cc3)cc3c(c2C1)NC(=O)C3=NO
Response: 5.80

Pending compound:
Query: Report pIC50, nothing else, for this compound: CN1CCc2c(-c3ccc(S(=O)(=O)N4CCCCC4)cc3)cc3c(c2C1)NC(=O)C3=NO
Response: 7.57
